Kindly state EC50 for each of the entries shown.
Tested On: human GLP-1R (Homo sapiens, UniProt P43220)
Construct: host or cells: HEK293
Sequence (P43220 24-463): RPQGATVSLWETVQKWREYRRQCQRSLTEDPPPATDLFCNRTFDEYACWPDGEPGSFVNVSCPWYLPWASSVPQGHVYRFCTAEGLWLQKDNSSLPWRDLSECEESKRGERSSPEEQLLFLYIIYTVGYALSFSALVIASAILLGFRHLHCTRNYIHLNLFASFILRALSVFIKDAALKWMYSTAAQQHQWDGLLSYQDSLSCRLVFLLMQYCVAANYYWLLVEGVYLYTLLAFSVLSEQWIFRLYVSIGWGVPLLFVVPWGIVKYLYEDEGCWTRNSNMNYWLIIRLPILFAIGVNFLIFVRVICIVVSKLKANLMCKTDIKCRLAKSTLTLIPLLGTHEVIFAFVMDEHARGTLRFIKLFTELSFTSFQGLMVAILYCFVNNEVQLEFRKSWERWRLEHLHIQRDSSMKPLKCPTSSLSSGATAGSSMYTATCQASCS
Protocol Description: GLP-1R cAMP assay (Example B1a, HTRF, 30 min at room temperature)
Type: cell-based
Measurement Parameters: cAMP accumulation in HEK293 expressing human GLP-1R, no BETP, 30 min room temperature (Method B1a, compounds ID 1-609), Table 1; read-out: EC50

input: For the compound Cc1cc(-n2nc3c(c2-n2ccn(-c4ccc5c(cnn5C)c4F)c2=O)[C@@H]2CCC[C@H](C3)N2S(=O)(=O)c2cc3cc(C4CCOCC4)ccc3n2[C@]2(c3noc(=O)[nH]3)C[C@@H]2C)cc(C)c1F , what EC50 is on record?
output: ≥ 10 µM

input: Try this compound too: Cc1cc(-n2nc3c(c2-n2ccn(-c4ccc5c(cnn5C)c4F)c2=O)[C@@H]2CCC[C@H](C3)N2S(=O)(=O)c2cc3cc(N4CCOC5(CC5)C4)ccc3n2[C@]2(c3noc(=O)[nH]3)C[C@@H]2C)cc(C)c1F
output: ≥ 10 µM

input: Try this compound too: Cc1cc(-n2nc3c(c2-n2ccn(-c4ccc5c(cnn5C)c4F)c2=O)[C@@H]2CC[C@H](C3)N2C(=O)c2cc3cc([C@@H]4CCOC5(CC5)C4)ccc3n2[C@]2(c3noc(=O)[nH]3)C[C@H]2C)cc(C)c1F
output: ≥ 10 µM

input: Try this compound too: Cc1cc(-n2nc3c(c2-n2ccn(-c4ccc5c(cnn5C)c4F)c2=O)[C@H]2CC[C@@H](C3)N2C(=O)c2cc3cc([C@H]4CCOC(C)(C)C4)ccc3n2[C@@]2(c3noc(=O)[nH]3)C[C@@H]2C)cc(C)c1F
output: ≥ 100 µM

input: Try this compound too: Cc1cc(-n2nc3c(c2-n2ccn(-c4ccc5c(cnn5C)c4F)c2=O)[C@@H]2CC[C@H](C3)N2C(=O)c2cc3cc([C@H]4CCOC(C)(C)C4)ccc3n2[C@@]2(C(=O)NS(=O)(=O)N(C)C)C[C@@H]2C)cc(C)c1F
output: > 10 µM

###

Kindly state EC50 for each of the entries shown.
Tested On: human GLP-1R (Homo sapiens, UniProt P43220)
Construct: host or cells: HEK293
Protocol Description: GLP-1R cAMP assay (Example B1a, HTRF, 30 min at room temperature)
Format: cell-based
Measurement Parameters: cAMP accumulation in HEK293 expressing human GLP-1R, no BETP, 30 min room temperature (Method B1a, compounds ID 1-609), Table 1; read-out: EC50

input: For the molecule Cc1cc(-n2nc3c(c2-n2ccn(-c4cccc(C(N)=O)c4F)c2=O)[C@@H]2CC[C@H](C3)N2C(=O)c2cc3cc([C@H]4CCOC(C)(C)C4)ccc3n2C2(c3noc(=O)[nH]3)CC2)cc(C)c1F , what EC50 is on record?
output: > 10 µM

input: Try this molecule too: Cc1cc(-n2nc3c(c2-c2ncn(-c4ccc5c(cnn5C)c4F)c2C)[C@H](C)N(C(=O)c2cc4cc(N5CCS(=O)(=O)CC5)ccc4n2C2(c4noc(=O)[nH]4)CC2)CC3)cc(C)c1F
output: > 10 µM

input: Try this molecule too: Cc1cc(-n2nc3c(c2-n2ccn(-c4ccc(CS(C)(=O)=O)cc4)c2=O)[C@@H]2CCC[C@H](C3)N2C(=O)c2cc3cc([C@H]4CCOC(C)(C)C4)ccc3n2[C@@]2(c3noc(=O)[nH]3)C[C@@H]2C)cc(C)c1F
output: ≥ 10 µM

###

Tested On: human GLP-1R (Homo sapiens, UniProt P43220)
Construct: host or cells: HEK293
Protocol Description: GLP-1R cAMP assay (Example B1a, HTRF, 30 min at room temperature)
Type: cell-based
Measurement Parameters: cAMP accumulation in HEK293 expressing human GLP-1R, no BETP, 30 min room temperature (Method B1a, compounds ID 1-609), Table 1; read-out: EC50
Experimental: Assay was carried out with HEK293 expressing human GLP-1R using HTRF assay, developed by Wuxi Apptec. The method is a competitive assay between native cAMP produced by the cells and exogenous cAMP labeled with a proprietary dye d2. […] Plates were read on Envision plate reader. The data were analyzed by ScreenUltra in Dotmatics, with % activation expressed using following formula: (Well data−negative control)/(postive control−negative control)*100. […]
Kindly state EC50 for each of the entries shown.

input: For the molecule Cc1cc(-n2nc3c(c2-n2ccn(-c4ccc5c(cnn5C)c4F)c2=O)[C@@H]2CC[C@H](C3)N2C(=O)c2cc3cc([C@H]4CCOC5(CC5)C4)ccc3n2[C@]2(c3noc(=O)[nH]3)C[C@H]2C)cc(C)c1F , what EC50 is on record?
output: ≥ 10 µM

input: Try this molecule too: Cc1cc(-n2nc3c(c2-n2ccn(-c4ccc5c(cnn5C)c4F)c2=O)C2CCC(CC3)N2C(=O)c2cc3cc([C@H]4CCOC(C)(C)C4)ccc3n2[C@@]2(c3noc(=O)[nH]3)C[C@@H]2C)cc(C)c1F (stereo partly drawn)
output: ≥ 10 µM

input: Try this molecule too: Cc1cc(-n2nc3c(c2-n2ccn(-c4ccc5nn(CCN6CCOCC6)cc5c4F)c2=O)[C@@H]2CC[C@H](C3)N2C(=O)c2cc3cc([C@H]4CCOC(C)(C)C4)ccc3n2[C@@]2(c3noc(=O)[nH]3)C[C@@H]2C)cc(C)c1F
output: > 10 µM

###

Tested On: human GLP-1R (Homo sapiens, UniProt P43220)
Construct: host or cells: HEK293
Protocol Description: GLP-1R cAMP assay (Example B1a, HTRF, 30 min at room temperature)
Format: cell-based
Measurement Parameters: cAMP accumulation in HEK293 expressing human GLP-1R, no BETP, 30 min room temperature (Method B1a, compounds ID 1-609), Table 1; read-out: EC50
pEC50: −log10 of the molar value.
Kindly state pEC50 for each of the entries shown.

input: For the molecule Cc1cc(-n2nc3c(c2-n2ccn(-c4ccc5c(cnn5C)c4F)c2=O)[C@@H]2CC[C@H](C3)N2C(=O)c2cc3c(=O)n([C@@H]4CCOC(C)(C)C4)ccc3n2[C@@]2(c3noc(=O)[nH]3)C[C@@H]2C)cc(C)c1F , what pEC50 is on record?
output: < 5.00

input: Try this molecule too: Cc1cc(-n2nc3c(c2-n2ccn(-c4ccc5c(cnn5C)c4F)c2=O)CCN(C(=O)c2cc4cc([C@H]5CCOC(C)(C)C5)ccc4n2[C@@]2(c4noc(=O)[nH]4)C[C@@H]2C)CC3)cc(C)c1F
output: ≤ 5.00

input: Try this molecule too: Cc1cc(-n2nc3c(c2-n2ccn(-c4ccc5c(cnn5C)c4F)c2=O)CN(C(=O)c2cc4cc([C@H]5CCOC(C)(C)C5)ccc4n2[C@@]2(c4noc(=O)[nH]4)C[C@@H]2C)[C@@H](C)CC3)cc(C)c1F
output: ≤ 5.00

input: Try this molecule too: Cc1cc(-n2nc3c(c2-n2ccn(-c4ccc(C(N)=O)c(F)c4)c2=O)[C@@H]2CC[C@H](C3)N2C(=O)c2cc3cc([C@H]4CCOC(C)(C)C4)ccc3n2C2(c3noc(=O)[nH]3)CC2)cc(C)c1F
output: < 5.00

###

Tested On: human GLP-1R (Homo sapiens)
Construct: host or cells: HEK293
Protocol Description: GLP-1R cAMP assay (Example B1a, HTRF, 30 min at room temperature)
Type: cell-based
Measurement Parameters: cAMP accumulation in HEK293 expressing human GLP-1R, no BETP, 30 min room temperature (Method B1a, compounds ID 1-609), Table 1; read-out: EC50
Kindly state pEC50 for each of the entries shown.
To interpret pEC50, take it as minus log10 of a concentration measured in moles per litre.

input: For the compound Cc1cc(-n2nc3c(c2-n2ccn(-c4ccc5c(cnn5C)c4F)c2=O)[C@@H]2CC[C@H](CC3)N2C(=O)c2cc3cc([C@H]4CCOC(C)(C)C4)ccc3n2[C@@]2(c3noc(=O)[nH]3)C[C@@H]2C)cc(C)c1F , what pEC50 is on record?
output: 6.21

input: Try this compound too: CCc1nccc(-c2ccc3c(c2)cc(C(=O)N2[C@@H]4CC[C@H]2c2c(nn(-c5cc(C)c(F)c(C)c5)c2-n2ccn(-c5ccc6c(cnn6C)c5F)c2=O)C4)n3[C@@]2(c3noc(=O)[nH]3)C[C@@H]2C)c1C
output: 6.57

input: Try this compound too: CC(=O)NC[C@]1(n2c(C(=O)N3[C@@H]4CC[C@H]3c3c(nn(-c5cc(C)c(F)c(C)c5)c3-n3ccn(-c5ccc6c(cnn6C)c5F)c3=O)C4)cc3cc([C@H]4CCOC(C)(C)C4)ccc32)C[C@@H]1C
output: 6.12

input: Try this compound too: Cc1cc(-n2nc3c(c2-n2ccn(-c4ccc5c(cnn5C)c4F)c2=O)[C@@H]2CC[C@H](C3)N2C(=O)c2cc3cc([C@H]4CCOC5(CC5)C4)ccc3n2[C@]2(c3noc(=O)[nH]3)C[C@@H]2C)cc(C)c1F
output: 5.84

input: Try this compound too: Cc1cc(-n2nc3c(c2-n2ccn(-c4ccc5c(cnn5C)c4F)c2=O)[C@@H]2COC[C@H](C3)N2C(=O)c2cc3cc(C4CCOCC4)ccc3n2[C@@]2(c3noc(=O)[nH]3)C[C@@H]2C)cc(C)c1F
output: 6.89

input: Try this compound too: Cc1cc(-n2nc3c(c2-n2ccn(-c4ccc5[nH]ncc5c4F)c2=O)[C@@H]2CC[C@H](C3)N2C(=O)c2cc3cc([C@H]4CCOC(C)(C)C4)ccc3n2[C@@]2(c3noc(=O)[nH]3)C[C@@H]2C)cc(C)c1F
output: 7.74

input: Try this compound too: Cc1cc(-n2nc3c(c2-n2ccn(-c4ccc5c(cnn5C)c4F)c2=O)[C@@H]2CC[C@H](C3)N2C(=O)c2cc3nc([C@H]4CCOC(C)(C)C4)ccc3n2[C@@]2(c3noc(=O)[nH]3)C[C@@H]2C)cc(C)c1F
output: 6.04

input: Try this compound too: Cc1cc(-n2nc3c(c2-n2ccn(-c4ccc5cnncc5c4F)c2=O)[C@@H]2CC[C@H](C3)N2C(=O)c2cc3cc([C@H]4CCOC(C)(C)C4)ccc3n2[C@@]2(c3noc(=O)[nH]3)C[C@@H]2C)cc(C)c1F
output: 7.83

Data provenance: patent US12617783B2
